# test-target: BRM (Homo sapiens)
# Construct: made in house; host or cells: High Five insect cells
# Sequence (P51531 whole entry): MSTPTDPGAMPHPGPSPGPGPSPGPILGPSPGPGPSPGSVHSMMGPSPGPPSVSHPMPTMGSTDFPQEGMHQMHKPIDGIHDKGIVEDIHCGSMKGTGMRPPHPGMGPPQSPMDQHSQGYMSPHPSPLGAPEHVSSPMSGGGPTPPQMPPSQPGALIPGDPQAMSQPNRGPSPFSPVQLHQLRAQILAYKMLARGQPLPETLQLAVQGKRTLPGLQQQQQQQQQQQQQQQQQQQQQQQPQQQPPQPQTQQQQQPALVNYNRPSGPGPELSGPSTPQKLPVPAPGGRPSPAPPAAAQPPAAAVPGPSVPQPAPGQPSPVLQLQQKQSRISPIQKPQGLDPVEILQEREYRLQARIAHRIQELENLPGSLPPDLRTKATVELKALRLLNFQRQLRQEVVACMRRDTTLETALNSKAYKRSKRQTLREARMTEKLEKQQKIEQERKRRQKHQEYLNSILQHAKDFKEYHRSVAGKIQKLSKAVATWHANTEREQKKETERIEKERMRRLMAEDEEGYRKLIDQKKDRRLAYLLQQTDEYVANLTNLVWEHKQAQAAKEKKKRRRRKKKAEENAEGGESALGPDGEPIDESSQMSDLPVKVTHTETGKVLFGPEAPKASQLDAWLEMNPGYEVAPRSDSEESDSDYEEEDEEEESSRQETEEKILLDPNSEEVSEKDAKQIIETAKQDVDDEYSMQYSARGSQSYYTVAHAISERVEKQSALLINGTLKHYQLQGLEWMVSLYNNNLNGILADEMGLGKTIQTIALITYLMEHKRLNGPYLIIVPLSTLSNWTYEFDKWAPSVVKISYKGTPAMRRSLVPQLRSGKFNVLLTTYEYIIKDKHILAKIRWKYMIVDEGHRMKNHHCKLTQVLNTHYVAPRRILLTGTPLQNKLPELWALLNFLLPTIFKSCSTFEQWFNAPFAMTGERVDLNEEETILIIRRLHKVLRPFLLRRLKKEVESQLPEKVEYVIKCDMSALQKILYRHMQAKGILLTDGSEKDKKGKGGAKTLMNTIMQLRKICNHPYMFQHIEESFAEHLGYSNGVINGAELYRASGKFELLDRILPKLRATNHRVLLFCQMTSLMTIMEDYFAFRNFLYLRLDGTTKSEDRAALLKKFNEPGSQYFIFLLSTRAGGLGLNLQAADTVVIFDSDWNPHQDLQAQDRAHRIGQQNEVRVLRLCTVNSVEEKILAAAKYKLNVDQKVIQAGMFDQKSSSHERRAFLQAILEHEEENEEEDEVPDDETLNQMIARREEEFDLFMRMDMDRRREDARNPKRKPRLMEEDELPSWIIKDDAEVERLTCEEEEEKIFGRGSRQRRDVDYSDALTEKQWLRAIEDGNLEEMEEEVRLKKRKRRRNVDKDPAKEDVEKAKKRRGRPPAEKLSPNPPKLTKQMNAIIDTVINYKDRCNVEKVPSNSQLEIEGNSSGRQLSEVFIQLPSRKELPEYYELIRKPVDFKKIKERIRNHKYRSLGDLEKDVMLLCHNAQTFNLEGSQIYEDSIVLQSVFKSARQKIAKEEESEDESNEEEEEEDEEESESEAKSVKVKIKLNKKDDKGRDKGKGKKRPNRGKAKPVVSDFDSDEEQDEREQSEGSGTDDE
# experiment-notes: ATPase catalytic activity assay (ADP-Glo), BRM
# Assay type: biochemical
# measurement-context: ATPase assay, selectivity BRG1/BRM, Table 10
attribute-measured: Ratio (BRG1 IC50 (μM) divided by BRM IC50 (μM))
// no unit, no text: just the number

Request: Any idea what Ratio (BRG1 IC50 (μM) divided by BRM IC50 (μM)) was measured for COc1nc([C@H](F)CF)ccc1-c1ccc2cnc(CNC(=O)c3cc(F)c4c(c3)S(=O)(=O)[C@@H](F)CCO4)cc2n1 [Compound 98] ?
Response: 31.77

Request: Item under review: O=C(NCc1cc2cc(-c3cncc(C4CC4)n3)ccc2cn1)c1cc(F)c2c(c1)S(=O)(=O)[C@@H](F)COC2 [Compound 77] . Reported Ratio (BRG1 IC50 (μM) divided by BRM IC50 (μM))?
Response: 23.82

Request: Requested field: Ratio (BRG1 IC50 (μM) divided by BRM IC50 (μM)). Item: C[C@@H]1CN(c2cnc3c(c2)OCCN3c2ccc3cnc(CNC(=O)c4cc(F)c5c(c4)S(=O)(=O)[C@@H](F)CCO5)cc3n2)C[C@@H]1F [Compound 284]
Response: 11.05

Request: Tell me the measured Ratio (BRG1 IC50 (μM) divided by BRM IC50 (μM)) of COCCOc1cnc2c(c1)CCCN2c1ccc2cnc(CNC(=O)c3cc(F)c4c(c3)S(=O)(=O)[C@@H](F)CCO4)cc2n1 [Compound 271] , please.
Response: 29.78

Request: Give its Ratio (BRG1 IC50 (μM) divided by BRM IC50 (μM)) value. Item: C[C@H]1C[C@H]1c1cnc2c(c1)OCCN2c1ccc2cnc(CNC(=O)c3cc(F)c4c(c3)S(=O)(=O)[C@@H](F)CCO4)cc2n1 [Compound 300]
Response: 11.89

---

# test-target: UniProt P51531
Definition: the class of an entry is the range in low end = under 3 nM, middle = from 3 nM up to 5 nM, high end = 5 nM and over that contains its IC50.

Request: Given O=C(NCc1cc2nc(-c3ccnc([C@H]4CC4(F)F)n3)ccc2cn1)c1cc(F)c2c(c1)S(=O)(=O)[C@@H](F)CCO2 , name the class its IC50 places it in.
Response: high end

Request: Place this molecule in its band: O=C(NCc1cc2nc(N3CCOc4cc(N5CC(F)C5)cnc43)ccc2cn1)c1cc(F)c2c(c1)S(=O)(=O)[C@@H](F)COC2
Response: low end

Request: Would you mind sorting O=C(NCc1cc2nc(N3CCOc4cc(N5C[C@H](F)[C@@H](F)C5)cnc43)ccc2cn1)c1cc(F)c2c(c1)S(=O)(=O)[C@@H](F)CCO2 into the appropriate category?
Response: middle

Request: Hello team, could you let me know which band the following molecule falls into: CCOc1ccc(-c2ccc3cnc(CNC(=O)c4cc(F)c5c(c4)S(=O)(=O)[C@@H](F)CCO5)cc3n2)nc1[C@H]1CC1(F)F
Response: high end

Request: Any idea which band Cc1cc(C(=O)NCc2cc3nc(-c4cccc(OC(F)F)n4)ccc3cn2)cc2c1COC[C@H](F)S2(=O)=O is in?
Response: high end

Request: Where would COc1nc(C(F)F)ccc1-c1ccc2cnc(CNC(=O)c3cc(F)c4c(c3)S(=O)(=O)[C@@H](F)COC4)cc2c1 land among the classes by reported IC50?
Response: middle

Request: # bin label for COc1nc(-c2ccc3cnc(CNC(=O)c4cc(F)c5c(c4)S(=O)(=O)[C@@H](F)CCO5)cc3n2)ccc1C(F)F
Response: middle

Request: Field: class (IC50) — entry: O=C(NCc1cc2nc(N3CCCc4c(OC(F)F)ccnc43)ccc2cn1)c1cc(F)c2c(c1)S(=O)(=O)[C@@H](F)CCO2
Response: high end

Request: Which of the defined bands does the recorded IC50 of COc1nscc1-c1ccc2cnc(CNC(=O)c3cc(F)c4c(c3)S(=O)(=O)[C@@H](F)CCO4)cc2n1 sit within?
Response: high end

Request: // return the class label for O=C(NCc1cc2cc(-c3cccc(C4CC4)n3)ccc2cn1)c1cc(F)c2c(c1)S(=O)(=O)[C@@H](F)COC2
Response: middle

Request: Kindly state the category for this molecule: CO[C@H](C)COc1ccc2c(c1)N(c1ccc3cnc(CNC(=O)c4cc(F)c5c(c4)S(=O)(=O)[C@@H](F)CCO5)cc3n1)CCO2
Response: low end

Request: Looking at O=C(NCc1cc2nc(N3CCOc4ccc(C5CC5)nc43)ccc2cn1)c1ccc2c(c1)S(=O)(=O)[C@@H](F)CCO2 , which class would you pick?
Response: middle

Request: Kindly state the category for this molecule: O=C(NCc1cc2nc(N3CCOc4cc(F)c(C(F)F)nc43)ccc2cn1)c1cc(F)c2c(c1)S(=O)(=O)[C@@H](F)CCO2
Response: high end

Request: Place this molecule in its band: O=C(NCc1cc2nc(-c3cncc(C4CC4)n3)ccc2cn1)c1cc(F)c2c(c1)S(=O)(=O)[C@@H](F)COC2
Response: high end

Request: Field: class (IC50) — entry: O=C(NCc1cc2nc(N3CCOc4cc(N5CC[C@H]5CF)cnc43)ccc2cn1)c1cc(F)c2c(c1)S(=O)(=O)[C@@H](F)CCO2
Response: low end

Request: Consider C[C@@H]1C[C@H]1c1cnc2c(c1)OCCN2c1ccc2cnc(CNC(=O)c3cc(F)c4c(c3)S(=O)(=O)[C@@H](F)CCO4)cc2n1 . To which IC50 class does it belong?
Response: middle

Request: Could you place [2H]C1([2H])OC([2H])([2H])[C@H](F)S(=O)(=O)c2cc(C(=O)NCc3cc4nc(N5CCOc6cc(C7CC7)cnc65)ccc4cn3)cc(F)c21 in its proper category? Many thanks.
Response: low end

Request: Any idea which band O=C(NCc1cc2nc(N3CCOc4cc(C5CC5)cnc43)ccc2cn1)c1ccc2c(c1)S(=O)(=O)[C@@H](F)CCO2 is in?
Response: low end

Request: Hello team, could you let me know which band the following molecule falls into: O=C(NCc1cc2nc(N3CCOc4cc(N5C[C@@H](F)[C@H](F)C5)cnc43)ccc2cn1)c1cc(F)c2c(c1)S(=O)(=O)[C@@H](F)CCO2
Response: low end

Request: Lab note: which band did CCOc1cc(C(F)F)nc2c1OCCN2c1ccc2cnc(CNC(=O)c3cc(F)c4c(c3)S(=O)(=O)[C@@H](F)CCO4)cc2n1 land in?
Response: middle
